Item-by-item account of fold change
Target: T1, Adeno-associated virus 8 (AAV8) virion (adeno-associated virus 8)
T1 construct: Intact virion with packaged vector genome; capsid of 60 subunits (VP1, VP2, VP3, overlapping products of one cap gene); also called AAV8/luc; AAV8 capsid
Test: co-IP/LC-MS/MS, AAV8 + human serum vs PBS control
// units = fold; emit number, no label

Example entries and their recorded answers appear below.
binder	fold change, fold
Apolipoprotein C-I (other, also called APOC1) TPDVSSALDKLKEFGNTLEDKARELISRIKQSELSAKMREWFSETFQKVKEKLKIDS	2
Ig gamma-2 chain C region (other, also called IGHG2) ASTKGPSVFPLAPCSRSTSESTAALGCLVKDYFPEPVTVSWNSGALTSGVHTFPAVLQSSGLYSLSSVVTVPSSNFGTQTYTCNVDHKPSNTKVDKTVERKCCVECPPCPAPPVAGPSVFLFPPKPKDTLMISRTPEVTCVVVDVSHEDPEVQFNWYVDGVEVHNAKTKPREEQFNSTFRVVSVLTVVHQDWLNGKEYKCKVSNKGLPAPIEKTISKTKGQPREPQVYTLPPSREEMTKNQVSLTCLVKGFYPSDISVEWESNGQPENNYKTTPPMLDSDGSFFLYSKLTVDKSRWQQGNVFSCSVMHEALHNHYTQKSLSLSPGK	5.06
CD5 antigen-like (other, also called CD5L) SPSGVRLVGGLHRCEGRVEVEQKGQWGTVCDDGWDIKDVAVLCRELGCGAASGTPSGILYEPPAEKEQKVLIQSVSCTGTEDTLAQCEQEEVYDCSHDEDAGASCENPESSFSPVPEGVRLADGPGHCKGRVEVKHQNQWYTVCQTGWSLRAAKVVCRQLGCGRAVLTQKRCNKHAYGRKPIWLSQMSCSGREATLQDCPSGPWGKNTCNHDEDTWVECEDPFDLRLVGGDNLCSGRLEVLHKGVWGSVCDDNWGEKEDQVVCKQLGCGKSLSPSFRDRKCYGPGVGRIWLDNVRCSGEEQSLEQCQHRFWGFHDCTHQEDVAVICSG	1.23
Isoform 2 of Haptoglobin-related protein (other, also called HPR) MHVCVCVCVCVYMPVCVDACMCCEAGRPAFRSFLFSLCSDLGAVISLLLWGRQLFALYSGNDVTDISDDRFPKPPEIANGYVEHLFRYQCKNYYRLRTEGDGVYTLNDKKQWINKAVGDKLPECEAVCGKPKNPANPVQRILGGHLDAKGSFPWQAKMVSHHNLTTGATLINEQWLLTTAKNLFLNHSENATAKDIAPTLTLYVGKKQLVEIEKVVLHPNYHQVDIGLIKLKQKVLVNERVMPICLPSKNYAEVGRVGYVSGWGQSDNFKLTDHLKYVMLPVADQYDCITHYEGSTCPKWKAPKSPVGVQPILNEHTFCVGMSKYQEDTCYGDAGSAFAVHDLEEDTWYAAGILSFDKSCAVAEYGVYVKVTSIQHWVQKTIAEN	2.82

*Q* Please report the recorded fold change for Ig gamma-3 chain C region (other, also called IGHG3) ASTKGPSVFPLAPCSRSTSGGTAALGCLVKDYFPEPVTVSWNSGALTSGVHTFPAVLQSSGLYSLSSVVTVPSSSLGTQTYTCNVNHKPSNTKVDKRVELKTPLGDTTHTCPRCPEPKSCDTPPPCPRCPEPKSCDTPPPCPRCPEPKSCDTPPPCPRCPAPELLGGPSVFLFPPKPKDTLMISRTPEVTCVVVDVSHEDPEVQFKWYVDGVEVHNAKTKPREEQYNSTFRVVSVLTVLHQDWLNGKEYKCKVSNKALPAPIEKTISKTKGQPREPQVYTLPPSREEMTKNQVSLTCLVKGFYPSDIAVEWESSGQPENNYNTTPPMLDSDGSFFLYSKLTVDKSRWQQGNIFSCSVMHEALHNRFTQKSLSLSPGK .
*A* 6.33

*Q* Please report the recorded fold change for Glutathione peroxidase 3 (enzyme, also called GPX3) QSRGQEKSKMDCHGGISGTIYEYGALTIDGEEYIPFKQYAGKYVLFVNVASYUGLTGQYIELNALQEELAPFGLVILGFPCNQFGKQEPGENSEILPTLKYVRPGGGFVPNFQLFEKGDVNGEKEQKFYTFLKNSCPPTSELLGTSDRLFWEPMKVHDIRWNFEKFLVGPDGIPIMRWHHRTTVSNVKMDILSYMRRQAALGVKRK .
*A* 2.74

*Q* Please report the recorded fold change for Beta-2-glycoprotein 1 (other, also called APOH) GRTCPKPDDLPFSTVVPLKTFYEPGEEITYSCKPGYVSRGGMRKFICPLTGLWPINTLKCTPRVCPFAGILENGAVRYTTFEYPNTISFSCNTGFYLNGADSAKCTEEGKWSPELPVCAPIICPPPSIPTFATLRVYKPSAGNNSLYRDTAVFECLPQHAMFGNDTITCTTHGNWTKLPECREVKCPFPSRPDNGFVNYPAKPTLYYKDKATFGCHDGYSLDGPEEIECTKLGNWSAMPSCKASCKVPVKKATVVYQGERVKIQEKFKNGMLHGDKVSFFCKNKEKKCSYTEDAQCIDGTIEVPKCFKEHSSLAFWKTDASDVKPC .
*A* 3.43
